system: Falciformispora senegalensis CBS197.79; test: growth relative to untreated control; higher = less inhibition, active = 20 or less; conditions: 100 µM
Quick reference for growth among some compounds
Write it as a number; the unit % goes unstated.

The examples below pair each entry with its known result.
Read off the recorded growth for `OC(Cn1cncn1)(Cn1cncn1)c1ccc(F)cc1F`
105

Read off the recorded growth for `CCOc1cc([C@@H](CS(C)(=O)=O)N2C(=O)c3cccc(NC(C)=O)c3C2=O)ccc1OC`
99.6

Read off the recorded growth for `C=CCNc1nc(NCC=C)nc(N2CCN(C(c3ccc(F)cc3)c3ccc(F)cc3)CC2)n1`
91.3

Read off the recorded growth for `O=c1c(Cl)c(OCc2ccc(Cl)nc2)cnn1-c1ccc(Cl)c(Cl)c1`
103

Read off the recorded growth for `C=CC(=O)Nc1cc(Nc2nccc(-c3cn(C)c4ccccc34)n2)c(OC)cc1N(C)CCN(C)C`
12.6

# input for lookup
Read off the recorded growth for `O=C(NC1CCNCC1)c1ccc(Nc2nccc(-c3ccc(Cl)cc3)n2)cc1`
10

* * *

tested on: Falciformispora senegalensis CBS197.79; test: growth relative to untreated control; higher = less inhibition, active = 20 or less; conditions: 100 µM
Returns: one label drawn from label 1 (active), label 0 (inactive)

Below, 3 compounds whose answers are already recorded.
So what was the verdict on `O=C(Nc1ncccc1O)c1ccc(S(=O)(=O)NCCc2cccs2)cc1` in this test?
label 0

So what was the verdict on `c1ccc(Nc2cc(Nc3cc(-c4ccccc4)[nH]n3)nc3ccnn23)cc1` in this test?
label 0

So what was the verdict on `O=C(NC1(CO)CCOCC1)c1cc2ccc(C(F)(F)F)cc2[nH]1` in this test?
label 0

Next, consider the following compound.
So what was the verdict on Nc1nc2ccccc2n1CC(O)c1ccc(Cl)cc1Cl (centres undefined) in this test?
label 0

* * *

system: Falciformispora senegalensis CBS197.79; assay: growth relative to untreated control; higher = less inhibition, active = 20 or less; settings: 25 µM
Quick reference for growth among some compounds
Write it as a number; the unit % goes unstated.

Please look at CCC(C)(C)n1nnnc1C(c1cc2ccc(C)cc2[nH]c1=O)N1CCN(c2ccccc2)CC1 (configuration not stated) and tell me its recorded growth on Falciformispora senegalensis CBS197.79.
86

Please look at `c1ccc(Nc2cc(Nc3cc(-c4ccccc4)[nH]n3)nc3ccnn23)cc1` and tell me its recorded growth on Falciformispora senegalensis CBS197.79.
67.4

Please look at Cn1nc(-c2cccc(C#N)c2)c2cc(-c3n[nH]c(C4CCCN4)n3)ccc21 (configuration not stated) and tell me its recorded growth on Falciformispora senegalensis CBS197.79.
98.7

Please look at `O=C(NCCCNc1nc(Nc2ccc(N3CCOCC3)cc2)ncc1C1CC1)C1CCC1` and tell me its recorded growth on Falciformispora senegalensis CBS197.79.
93.4

Please look at `Cc1ccc(NC(=O)c2ccc(CN3CCN(C)CC3)cc2)cc1Nc1nccc(-c2cccnc2)n1` and tell me its recorded growth on Falciformispora senegalensis CBS197.79.
95.1

Please look at `O=c1c(Cl)c(OCc2ccc(Cl)nc2)cnn1-c1ccc(Cl)c(Cl)c1` and tell me its recorded growth on Falciformispora senegalensis CBS197.79.
92.2

Please look at `O=C(NCc1ccco1)c1ccc2[nH]c(COc3ccc(C45CC6CC(CC(C6)C4)C5)cc3)nc2c1` and tell me its recorded growth on Falciformispora senegalensis CBS197.79.
97.5

Please look at CC(CN1c2ccccc2Sc2ccccc21)N(C)C (configuration not stated) and tell me its recorded growth on Falciformispora senegalensis CBS197.79.
102

---
Please look at `O=C(NC1CCN(CCOc2ccc(Cl)cc2)CC1)c1c[nH]c2ccncc2c1=O` and tell me its recorded growth on Falciformispora senegalensis CBS197.79.
73.5

Please look at `COc1cccc(-c2ccc(NC(=O)C3=C(C(=O)O)CCC3)c(F)c2)c1` and tell me its recorded growth on Falciformispora senegalensis CBS197.79.
109

Please look at CC(C)(C)NC(=O)N[C@H](C(=O)N1C[C@H]2[C@@H]([C@H]1C(=O)NC(CC1CCC1)C(=O)C(N)=O)C2(C)C)C(C)(C)C (some centres not stated) and tell me its recorded growth on Falciformispora senegalensis CBS197.79.
103

Please look at `COC(=O)C1=C(C)NC(C)=C(C(=O)OC)C1c1ccccc1[N+](=O)[O-]` and tell me its recorded growth on Falciformispora senegalensis CBS197.79.
98.9

Please look at `C[C@H](NC(=O)c1cc2ccc(F)cc2[nH]1)c1ccccc1` and tell me its recorded growth on Falciformispora senegalensis CBS197.79.
91.5

Please look at `CC[C@H](C)[C@H]1O[C@]2(CC[C@@H]1C)C[C@@H]1C[C@@H](C/C=C(\C)[C@@H](O[C@H]3C[C@H](OC)[C@@H](O[C@H]4C[C@H](OC)[C@@H](O)[C@H](C)O4)[C@H](C)O3)[C@@H](C)/C=C/C=C3\CO[C@@H]4[C@H](O)C(C)=C[C@@H](C(=O)O1)[C@]34O)O2` and tell me its recorded growth on Falciformispora senegalensis CBS197.79.
90.2

Please look at `CCN1CCN(Cc2ccc(Nc3ncc(F)c(-c4cc(F)c5nc(C)n(C(C)C)c5c4)n3)nc2)CC1` and tell me its recorded growth on Falciformispora senegalensis CBS197.79.
101

Please look at `CC(C)(C)Cn1c(N)nc2ccc(-c3[nH]c(C(C)(C)C)nc3-c3ccc(F)cc3)nc21` and tell me its recorded growth on Falciformispora senegalensis CBS197.79.
100

Please look at `N#CC[C@H](C1CCCC1)n1cc(-c2ncnc3[nH]ccc23)cn1` and tell me its recorded growth on Falciformispora senegalensis CBS197.79.
110

* * *

tested on: Madurella mycetomatis MM55; assay: growth relative to untreated control; higher = less inhibition, active = 20 or less; details: 25 µM
Property: growth (%)
Write it as a number; the unit % goes unstated.

Read off the recorded growth for `O=C(Nc1cc(Cl)cc(Cl)c1O)c1c(O)c(Cl)cc(Cl)c1Cl`
39

Read off the recorded growth for `CC(C)NCc1cccc(-c2ccc(NC(=O)c3cccc(C#N)c3)cc2)c1`
87.5

Read off the recorded growth for `C[C@H](NC(=O)c1cc2ccc(F)cc2[nH]1)c1ccccc1`
83.1

Read off the recorded growth for `Cc1cc(Cl)ccc1NC(=S)N(C)C`
106

Read off the recorded growth for CCC(C)(C)n1nnnc1C(c1cc2ccc(C)cc2[nH]c1=O)N1CCN(c2ccccc2)CC1 (centres undefined)
76.6

Read off the recorded growth for `Cc1c(O)cccc1C(=O)N[C@@H](CSc1ccccc1)[C@H](O)CN1C[C@H]2CCCC[C@H]2C[C@H]1C(=O)NC(C)(C)C`
83.9

---
Read off the recorded growth for CS(=O)(=O)NC1CCN(C(=O)c2ccc(Nc3nccc(-c4cc(Cl)cc(C(F)(F)F)c4)n3)cc2)C1 (centres undefined)
122

Read off the recorded growth for `Cc1cc(Nc2cn3cc(-c4cnn(C(F)F)c4)ccc3n2)nc(C)n1`
95.2

Read off the recorded growth for `CC(C)(C)c1nn(-c2ccc(Cl)cc2)c2[nH]c(=O)c(CNCc3ccc4c(c3)OCO4)cc12`
5.51

Read off the recorded growth for CC(C)C(=O)OCC(=O)[C@@]12OC(C3CCCCC3)O[C@@H]1C[C@H]1[C@@H]3CCC4=CC(=O)C=C[C@]4(C)[C@H]3[C@@H](O)C[C@@]12C (some centres undefined)
75.3

Read off the recorded growth for `CS(=O)(=O)N1CCC(NC(=O)c2cc3ccc(C(F)(F)F)cc3[nH]2)CC1`
101

Read off the recorded growth for c1ccc(-c2ccnc(C3CCN(CC45CNCC4C5)CC3)n2)cc1 (centres undefined)
71.4

* * *

system: Falciformispora senegalensis CBS197.79; experiment: growth relative to untreated control; higher = less inhibition, active = 20 or less; conditions: 100 µM
Label 1 (yes) when growth is at or above 90%; anything below gets 0 (no).

# bool: growth of `CCCCc1oc2ccccc2c1C(=O)c1cc(I)c(OCCN(CC)CC)c(I)c1` >= 90%
1 (yes)

# bool: growth of COc1cccc2c1CCCC2CCCN1CCN(C2CCCCC2)CC1 (stereo not given) >= 90%
1 (yes)

# bool: growth of Oc1ccccc1CCNC1CCc2ccc(F)cc21 (stereo not given) >= 90%
1 (yes)

# bool: growth of `N#Cc1ccc(-c2n[nH]c3ccc(-c4n[nH]c(CC(F)(F)F)n4)cc23)cc1` >= 90%
1 (yes)

# bool: growth of `O=C1NCN(c2ccccc2)C12CCN(CCCC(c1ccc(F)cc1)c1ccc(F)cc1)CC2` >= 90%
0 (no)

# bool: growth of `CC[C@H](NC(=O)c1cc2c(F)cccc2[nH]1)c1ccccc1` >= 90%
1 (yes)

# bool: growth of `Cc1ccc(C)c2sc(N(CCCn3ccnc3)C(=O)c3ccco3)nc12` >= 90%
0 (no)

# bool: growth of `Cc1noc(C2CN(C(=O)c3ccc(Nc4nccc(-c5ccc(Cl)cc5)n4)cc3)C2)n1` >= 90%
1 (yes)

Next, consider the following compound.
# bool: growth of `C[C@H](NC(=O)c1cc2ccc(Cl)cc2n1C)c1ccccc1` >= 90%
0 (no)

These entries and their values trace back to the supplement of paper PMC11172423.
